B1: Chromodomain-helicase-DNA-binding protein 4, residues 444 to 496; numbered along this chain, Q14839 (parent)
chain: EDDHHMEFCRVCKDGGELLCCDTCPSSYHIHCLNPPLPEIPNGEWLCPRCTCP

Variants of: B1
Test: abundance fitness (aPCA) (normalised: wild type 0, dead -1); higher = more abundant; growth selection in yeast, the domain comes from the species named
Settings: Homo sapiens
Parameter: abundance fitness. Scope: all listed entries.
Enter the number alone.

Below are worked cases with known answers.
VARIANT_IDENTIFIER: P35L
VALUE_REPORTED: -0.378
--
VARIANT_IDENTIFIER: P41H
VALUE_REPORTED: -0.142
--
VARIANT_IDENTIFIER: W45E
VALUE_REPORTED: -0.517
--
VARIANT_IDENTIFIER: D22F
VALUE_REPORTED: 0.005
--
VARIANT_IDENTIFIER: H5V
VALUE_REPORTED: -0.135
--
VARIANT_IDENTIFIER: C52V
VALUE_REPORTED: 0.032

Please fill in: abundance fitness reported for C9G = -0.535
